Value source: patent US20200369728A1

tested on: SJSA-1 cells; experiment: Cell lysis by peptidomimetic macrocycles (LDH release); format: cell-based; details: 50 μM, SJSA-1, 1 h
Bridge positions count the residues as written; N and C are the ends. Square brackets hold non-standard residues; d marks the D form. Peptide text beside a SMILES is read from it. R8 = C=CCCCCCC[C@@](C)(N)C(=O)O; Cba = N[C@@H](CC1CCC1)C(=O)O; Chg = N[C@H](C(=O)O)C1CCCCC1; S5 = C=CCCC[C@](C)(N)C(=O)O; Nle = CCCC[C@H](N)C(=O)O; Ac3c = NC1(C(=O)O)CC1
metricName: 50 μM % Lysed cells (1 h LDH)

Problem: Give the reported 50 μM % Lysed cells (1 h LDH) for this molecule. CC(=O)N[C@@H](CC(C)C)C(=O)N[C@H](C(=O)N[C@@H](Cc1ccccc1)C(=O)N[C@]1(C)CCCCCCC=CCCC[C@@](C)(C(=O)N[C@@H](C)C(=O)N[C@@H](C)C(=O)N[C@@H](Cc2ccccc2)C(=O)N[C@H](C)C(N)=O)NC(=O)[C@H](CC(C)C)NC(=O)[C@H](CCC(N)=O)NC(=O)[C@H](C)NC(=O)[C@H](Cc2c[nH]c3ccccc23)NC(=O)[C@H](Cc2ccc(O)cc2)NC(=O)[C@H](CCC(=O)O)NC1=O)[C@@H](C)O (single isomer, unassigned) [compound 219]
Solution: 2%

Problem: Give the reported 50 μM % Lysed cells (1 h LDH) for this molecule. CCCC[C@H](NC(=O)[C@H](C)NC(=O)[C@H](CO)NC(=O)[C@]1(C)CCCC=CCCCCCC[C@@](C)(NC(=O)[C@H](Cc2ccccc2)NC(=O)[C@@H](NC(=O)[C@H](CC(C)C)NC(C)=O)[C@@H](C)O)C(=O)N[C@@H](CCC(=O)O)C(=O)N[C@@H](Cc2ccc(O)cc2)C(=O)N[C@@H](Cc2c[nH]c3ccccc23)C(=O)N[C@@H](CO)C(=O)N[C@@H](CCC(N)=O)C(=O)N[C@@H](CC2CCC2)C(=O)N1)C(=O)N[C@@H](C)C(N)=O [compound 245] (Ac-LTF[R8]EYWSQ[Cba][S5]SA[Nle]A-NH2; staple 4-11)
Solution: 56%

Problem: Give the reported 50 μM % Lysed cells (1 h LDH) for this molecule. CC(=O)N[C@@H](CC(C)C)C(=O)N[C@H](C(=O)N[C@@H](Cc1ccccc1)C(=O)N[C@]1(C)CCCCCCC=CCCC[C@@](C)(C(=O)N[C@@H](C)C(=O)N[C@@H](C)C(=O)N[C@@H](Cc2ccccc2)C(=O)N[C@H](C)C(N)=O)NC(=O)[C@H](CC(C)C)NC(=O)[C@H](CCC(N)=O)NC(=O)[C@H](C)NC(=O)[C@H](Cc2c[nH]c3ccccc23)NC(=O)[C@H](Cc2ccc(O)cc2)NC(=O)[C@H](CCC(=O)O)NC1=O)[C@@H](C)O (single isomer, unassigned) [compound 218]
Solution: 1%

Problem: Give the reported 50 μM % Lysed cells (1 h LDH) for this molecule. CC(=O)N[C@@H](CC(C)C)C(=O)N[C@H](C(=O)N[C@@H](Cc1ccccc1)C(=O)N[C@]1(C)CCCCCCC=CCCC[C@@](C)(C(=O)N[C@@H](CO)C(=O)N[C@@H](C)C(=O)N[C@H](C(N)=O)C2CCCCC2)NC(=O)[C@H](CC(C)C)NC(=O)[C@H](CCC(N)=O)NC(=O)[C@H](C)NC(=O)[C@H](Cc2c[nH]c3ccccc23)NC(=O)[C@H](Cc2ccc(O)cc2)NC(=O)[C@H](C)NC1=O)[C@@H](C)O [compound 9] (Ac-LTF[R8]AYWAQL[S5]SA[Chg]-NH2; staple 4-11)
Solution: 2%

Problem: Give the reported 50 μM % Lysed cells (1 h LDH) for this molecule. CC(=O)N[C@@H](CC(C)C)C(=O)N[C@H](C(=O)N[C@@H](Cc1ccccc1)C(=O)N[C@]1(C)CCCCCCC=CCCC[C@@](C)(C(=O)N[C@@H](CO)C(=O)N[C@H](C(=O)N[C@@H](CO)C(N)=O)C(C)C)NC(=O)[C@H](CC(C)C)NC(=O)[C@H](CCC(N)=O)NC(=O)[C@H](C)NC(=O)[C@H](Cc2c[nH]c3ccccc23)NC(=O)[C@H](Cc2ccc(O)cc2)NC(=O)[C@H](C(C)C)NC1=O)[C@@H](C)O (single isomer, unassigned)
Solution: 3%

Problem: Give the reported 50 μM % Lysed cells (1 h LDH) for this molecule. CC(=O)N[C@@H](CC(C)C)C(=O)N[C@H](C(=O)N[C@@H](Cc1ccccc1)C(=O)N[C@]1(C)CCCCCCC=CCCC[C@@](C)(C(=O)N[C@@H](CO)C(=O)N[C@H](C(=O)N[C@@H](CO)C(N)=O)C(C)C)NC(=O)[C@H](CC(C)C)NC(=O)[C@H](CCC(N)=O)NC(=O)[C@H](C)NC(=O)[C@H](Cc2c[nH]c3ccccc23)NC(=O)[C@H](Cc2ccc(O)cc2)NC(=O)[C@H](C)NC1=O)[C@@H](C)O [compound 121] (Ac-LTF[R8]AYWAQL[S5]SVS-NH2; staple 4-11)
Solution: 7%

Problem: Give the reported 50 μM % Lysed cells (1 h LDH) for this molecule. CC[C@H](C)[C@H](NC(=O)[C@H](C)NC(=O)[C@H](C)NC(=O)[C@]1(C)CCCC=CCCCCCC[C@@](C)(NC(=O)[C@H](Cc2ccccc2)NC(C)=O)C(=O)N[C@@H](C)C(=O)N[C@@H](Cc2ccc(O)cc2)C(=O)N[C@@H](Cc2c[nH]c3ccccc23)C(=O)N[C@@H](CCC(=O)O)C(=O)NC2(CC2)C(=O)N[C@@H](CC(C)C)C(=O)N1)C(N)=O [compound 19] (Ac-F[R8]AYWE[Ac3c]L[S5]AAI-NH2; staple 2-9)
Solution: 21%

Problem: Give the reported 50 μM % Lysed cells (1 h LDH) for this molecule. CC(=O)N[C@@H](CC(C)C)C(=O)N[C@H](C(=O)N[C@@H](Cc1ccccc1)C(=O)N[C@]1(C)CCCCCCC=CCCC[C@@](C)(C(=O)N[C@@H](C)C(=O)N[C@H](C(=O)NCC(N)=O)C(C)C)NC(=O)[C@H](CC(C)C)NC(=O)[C@H](CCC(N)=O)NC(=O)[C@H](C)NC(=O)[C@H](Cc2c[nH]c3ccccc23)NC(=O)[C@H](Cc2ccc(O)cc2)NC(=O)[C@H](C)NC1=O)[C@@H](C)O (single isomer, unassigned)
Solution: 1%

Problem: Give the reported 50 μM % Lysed cells (1 h LDH) for this molecule. CC[C@H](C)[C@H](NC(=O)[C@H](C)NC(=O)[C@H](C)NC(=O)[C@]1(C)CCCC=CCCCCCC[C@@](C)(NC(=O)[C@H](Cc2ccccc2)NC(=O)[C@@H](NC(=O)[C@H](CCC(=O)O)NC(C)=O)[C@@H](C)O)C(=O)N[C@@H](CCC(=O)O)C(=O)N[C@@H](Cc2c[nH]cn2)C(=O)N[C@@H](Cc2c[nH]c3ccccc23)C(=O)N[C@@H](C)C(=O)N[C@@H](CCC(N)=O)C(=O)N[C@@H](CC(C)C)C(=O)N1)C(=O)N[C@H](C)C(N)=O (single isomer, unassigned) [compound 175]
Solution: 0%
